target: human Glucagon-Like Peptide-1 receptor (human, UniProt P43220 24-463); assay: cell-based or functional assay
assay metric: EC50, intracellular cAMP (HTRF)

YXQGTFTSDYSKYLDXKKAXEFVAWLLEE (Aib at positions 2 and 16; K20 epsilon-amino group conjugated with ([2-(2-Amino-ethoxy)-ethoxy]-acetyl)2-(γGlu)1-CO-(CH2)18-CO2H; C-terminal acid) [Example 7]: > 100 nM

Problem: Look up EC50, intracellular cAMP (HTRF) for this binder: YXQGTFTSDYSKYLDXKKAXEFVAWLLEE (Aib at positions 2 and 16; K20 epsilon-amino group conjugated with ([2-(2-Amino-ethoxy)-ethoxy]-acetyl)2-(γGlu)1-CO-(CH2)16-CO2H; C-terminal acid) [Example 6]
Solution: > 100 nM

Problem: Look up EC50, intracellular cAMP (HTRF) for this binder: YXQGTFLSDYSKYLDXKKAXEFVEWLLETGPSSGAPPPS (Aib at positions 2 and 16; K20 epsilon-amino group conjugated with ([2-(2-Amino-ethoxy)-ethoxy]-acetyl)2-(γGlu)2-CO-(CH2)16-CO2H; C-terminal primary amide) [Example 3]
Solution: > 100 nM

Problem: Look up EC50, intracellular cAMP (HTRF) for this binder: YXQGTFTSDYSKYLDXKKAXEFVEWLLETGPSSGAPPPS (Aib at positions 2 and 16; K20 epsilon-amino group conjugated with ([2-(2-Amino-ethoxy)-ethoxy]-acetyl)2-(γGlu)2-CO-(CH2)16-CO2H; C-terminal primary amide) [Example 1]
Solution: 73.9 nM

Problem: Look up EC50, intracellular cAMP (HTRF) for this binder: YXQGTFTSDYSKYLDXKKAXEFVEWLLETGPSSGAPPPS (Aib at positions 2 and 16; K20 epsilon-amino group conjugated with ([2-(2-Amino-ethoxy)-ethoxy]-acetyl)2-(γGlu)2-CO-(CH2)18-CO2H; C-terminal primary amide) [Example 2]
Solution: > 100 nM
